# Test: TruHit bead signal quenchers or artefacts – biochemical, TruHit kit, artefact control, dose response (AID 1259339)
# Measurement context: TruHit alphaLISA kit signal interference counterscreen; series mostly up to 80 µM
The source made the active and inactive calls.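 The calls were made as follows: active = fitted AC50 no higher than ten times the top tested dose (cut at about 90 µM in these data); inconclusive = flat curve with 30 to 70% signal loss, or bad fit; inactive = AC50 beyond ten times the top dose.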
Outcomes you can answer with include only these: 1 = active, -1 = inactive

{"columns": ["Compound", "Label"],
 "data": [
  ["COc1ccc(-n2c(C)c3c(OC)cccc(=O)c3c2C)cc1", 1],
  ["COCCC(=O)N1CCCC2(CCN(CCN3CCCC3)C2=O)C1 (stereo unspecified)", -1],
  ["COc1ccc(-c2nc(C)c(C(C)=O)n2O)cc1OC", -1],
  ["O=C(O)c1ccccc1/C=N/NC(=O)c1cc(-c2ccco2)nc2ccccc12", 1],
  ["C=CCNc1ncnc2c1CCN(C(=O)c1ccc(CSC)o1)CC2", -1]
]}

What did this assay record as the result for O=C(NCCCN1CCOCC1)c1cc(-c2ccco2)nc2ccccc12 ?
1

What did this assay record as the result for COc1ccc(-c2ccc(CCC(=O)O)o2)cc1 ?
-1

What did this assay record as the result for CCCc1oc(C(=O)O)cc1CN ?
-1
